- Protocol Text: binders of probe aFSTL3 on microarray, primary screen, stem cell growth factor project, biochemical, small-molecule microarray, fluorescence 635/667 (AID 1064);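 note: measures binding of the biotinylated anti-FSTL3 antibody to printed compounds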
- Conditions Used: higher = more signal
Observation Type: composite z-score
API doc: respond with a numeric literal and nothing else, no unit.

Item: [N-]=[N+]=Nc1ccccc1C[C@]1(C(N)=O)COC(c2ccc(OCCCO)cc2)=N1 | composite z-score: 1.05

Item: O=C1NC(=O)C2C1C=CC(C(O)C(O)CO)N2Nc1ccccn1 (centres undefined) | composite z-score: -0.304

Item: [N-]=[N+]=NCc1ccccc1C[C@@]1(C(=O)NCCN2CCOCC2)N=C(c2ccc(OCCCO)cc2)O[C@@H]1c1ccccc1 | composite z-score: -0.0252

Item: CC(C)C[C@@H]1NC(=O)[C@@H]2C[C@H](C(=O)NCCCCCCNC(=O)CS)[C@H](c3ccc(O)cc3)N2C1=O | composite z-score: -0.0857

Item: CC[C@@H]1C=C(C(=O)O)[C@H](c2cccc(Cl)c2)N1S(=O)(=O)c1ccc(C)cc1 | composite z-score: 0.0801

More entries:
Item: CN1C(=O)C2C=CC(C(O)c3ccc(I)cc3)N(N(c3ccccc3)c3ccccc3)C2C1=O (centres undefined) | composite z-score: 0.75

Item: CCCCC(=C=CC[C@H](O)c1ccccc1OCCO)CCO | composite z-score: -0.121

Item: COc1ccc(NN2C(C(O)c3ccccc3)C=CC3C(=O)N(C4CCCCC4)C(=O)C32)cc1 (centres undefined) | composite z-score: 0.0373

Item: COC(=O)C1=CC(CCCO)=CC(c2ccc(CN3CCCC3)cc2)N(C)C=C1C(=O)OC (centres undefined) | composite z-score: 0.114

###

- Protocol Text: small-molecule microarray binders of probe aEGFR, primary screen, biochemical, biotinylated probe, 635/667 nm fluorescence (AID 1097);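 note: probe is a biotinylated anti-EGFR antibody binding compounds printed on slides; score combines fluorescence near 667 nm and signal to noise of each spot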
- Conditions Used: higher = more signal
Examples of molecules with documented composite z-score follow.

Item: O=C1N(Cc2ccccc2)c2ccccc2C[C@@]12N=C(c1ccc(OCCCO)cc1)O[C@H]2c1ccccc1 | composite z-score: -0.178

Item: CCCCN1CC=CC23O[C@@H]4C=CCCOC(=O)C4[C@H]2C(=O)N(CCO)[C@@H]3C1=O (stereo not given in full) | composite z-score: -0.167

Item: COc1ccc(C(=O)Nc2ccc(CN3C(=O)[C@]4(O[C@H](CC(=O)N(CCO)Cc5ccccc5)[C@@H]([Si](C)(C)c5ccc(OC)cc5)[C@@H]4C)c4ccccc43)cc2)cc1 | composite z-score: -0.096

###

- Protocol Text: binders of probe aHhip on microarray, primary screen, stem cell growth factor project, biochemical, small-molecule microarray, fluorescence 635/667 (AID 1087);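 note: score merges spot fluorescence at 667nm with spot signal to noise ratio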
- Conditions Used: higher = more signal
Examples of compounds with documented composite z-score follow.

Item: CCOC(=O)C[C@H]1[C@H](OC(=O)c2cc3ccccc3oc2=O)[C@@H](NC(=O)c2ccc(-c3ccccc3)cc2)c2cc(OCCCO)ccc2N1C(=O)Cc1ccc(OC)cc1 | composite z-score: -0.132

Item: C=CC[C@H](O)c1ccc(O)c2ccccc12 | composite z-score: 0.0749

More entries:
Item: COC(=O)[C@@]1(Cc2ccc(F)cc2)[C@H]2c3cc(C(=O)N4CCCC4)n(CCSCCO)c3C[C@H]2CN1C(=O)c1ccccc1 | composite z-score: -0.174

Item: C=CCNC(=O)[C@H]1[C@@H]2C(=O)O[C@@H](c3ccccc3)[C@@H](c3ccccc3)N2[C@@H](c2ccc(O)cc2)[C@]12C(=O)Nc1ccc(C#CCC(C(=O)OC)C(=O)OC)cc12 | composite z-score: -0.261

Item: O=C1N(Cc2ccccc2)c2ccccc2C[C@@]12N=C(c1ccc(OCCCO)cc1)O[C@H]2c1ccccc1 | composite z-score: -0.0925
